system: biotinyl-Leu-oxazolone; assay: self-aminoacylation, catalytic enhancement (BLO) (fold over background); higher = more active; k-Seq, kA / k0A0; sequences stand for … in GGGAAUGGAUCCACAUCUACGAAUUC…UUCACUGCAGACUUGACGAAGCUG
Variants at the floor of the assay were thinned out.
For each of the sequences below, state its self-aminoacylation.

Hi there! I need self-aminoacylation for each item below, if you can.
1. CUAUUUCAAACAAUCGGUCUC [Fam1A.1 aminoacylation ribozyme variant]
2. CUACUUCAAACAAUCGAUCGG [Fam1A.1 aminoacylation ribozyme variant]

### Response
1: 0.785; 2: 0.721

Please look at the items below and tell me self-aminoacylation for each one, in order.
1. AUUACCCUGGUGAUUGAGUGA [Fam2.1 aminoacylation ribozyme variant]
2. CUACUUCAAACAAUCGGAGUG [Fam1A.1 aminoacylation ribozyme variant]

### Response
1: 7.64; 2: 4.96

###

tested on: biotinyl-Val-oxazolone; assay: self-aminoacylation, catalytic enhancement (BVO) (fold over background); higher = more active; k-Seq, kA / k0A0; sequences stand for … in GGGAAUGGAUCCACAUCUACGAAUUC…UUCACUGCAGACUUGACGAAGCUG
Variants at the floor of the assay were thinned out.
Exercise: for every item that follows, state its recorded self-aminoacylation.

Recorded self-aminoacylation, per entry:
### Prompt What value of measured self-aminoacylation is listed for AUACACCUAGGGCAUCGGGUG [Fam2.2 aminoacylation ribozyme variant] ?
### Response 2.43

### Prompt Looking for the measured self-aminoacylation of CUACUUGAAACAAUCGGCCUG [Fam1A.1 aminoacylation ribozyme variant] , can you help?
### Response 1.68

### Prompt Which self-aminoacylation reading was recorded for the sequence AUUACCGUGGUCAUGGAGUGA [Fam2.1 aminoacylation ribozyme variant] ?
### Response 2.37

### Prompt For the sequence ACGUUUGCUAAUAGUGGCAAG [Fam3.1 aminoacylation ribozyme variant] , what self-aminoacylation is on record?
### Response 0.741

### Prompt Item under review: AAGGUUCCUAAUAGUCGCAAG [Fam3.1 aminoacylation ribozyme variant] . Reported self-aminoacylation?
### Response 1.39

For each of the sequences below, state self-aminoacylation.
1. AGGUUUGAUAAUAGUCGCAAG [Fam3.1 aminoacylation ribozyme variant]
2. AUUACCCUCGUCAUCGAGUGG [Fam2.1 aminoacylation ribozyme variant]

### Response
1.54
0.932

Respectfully, I request self-aminoacylation for each entry included below.
1. CCACAAUUCAAGCCAUCGGUC [Fam1B.1 aminoacylation ribozyme variant]
2. AAGUUUGCUAAUAGUCGCGAC [Fam3.1 aminoacylation ribozyme variant]
3. AUUCACCCAGGGCAUCGGGUG [Fam2.2 aminoacylation ribozyme variant]
4. AUUUCCCUGUUCAUCGAGUGA [Fam2.1 aminoacylation ribozyme variant]
5. AUUCCCCUAGUCAUCGAGUGA [Fam2.1 aminoacylation ribozyme variant]
6. CUACUUCACACAACCGGUCUG [Fam1A.1 aminoacylation ribozyme variant]
7. UCACACUUUAAGCAAUCGGUC [Fam1B.1 aminoacylation ribozyme variant]

### Response
1. 1.7
2. 0.909
3. 3.72
4. 3.09
5. 7.18
6. 1.01
7. 0.857

Lab note: each sequence below needs its self-aminoacylation filled in.
1. CUACUUCAAACAAUCGGGCGG [Fam1A.1 aminoacylation ribozyme variant]
2. CCACUUCAAACAAUGGGUCUG [Fam1A.1 aminoacylation ribozyme variant]
3. AUGUUUGCUAAUAGUGGCAAG [Fam3.1 aminoacylation ribozyme variant]
4. AUUCACCUAGGGCAUCGGGUA [Fam2.2 aminoacylation ribozyme variant]

### Response
[1.4, 1.03, 0.643, 3.46]

###

Please go through the items and note down their self-aminoacylation.
test system: biotinyl-Leu-oxazolone; experiment: self-aminoacylation, catalytic enhancement (BLO) (fold over background); higher = more active; k-Seq, kA / k0A0; sequences stand for … in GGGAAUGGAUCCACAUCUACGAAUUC…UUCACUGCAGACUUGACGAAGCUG
Variants at the floor of the assay were thinned out.
Give bare numbers.

As a guide, the following entries are already answered.
### Prompt Entry CCACACGUCAUGCAAUCGGUC [Fam1B.1 aminoacylation ribozyme variant] has what self-aminoacylation?
### Response 0.972

### Prompt Reported self-aminoacylation, sequence AUUCACCAAGGCCAUCGGGUG [Fam2.2 aminoacylation ribozyme variant] : ____
### Response 5.34

### Prompt Please report the recorded self-aminoacylation for AAGUUUUCUAAUAGUCACAAG [Fam3.1 aminoacylation ribozyme variant] .
### Response 1.4

### Prompt Quick one: self-aminoacylation for AUUAGCCUGGUCAUCGAGUGU [Fam2.1 aminoacylation ribozyme variant] ?
### Response 4.18

### Prompt Sample AUGACCCUGGUCAUCGAGAGA [Fam2.1 aminoacylation ribozyme variant] — what was its self-aminoacylation?
### Response 1.52

### Prompt Give its self-aminoacylation value. Item: CCACACGUCAAGCAAUAGGUC [Fam1B.1 aminoacylation ribozyme variant]
### Response 0.652

### Prompt Would you kindly share the measured self-aminoacylation for AUUCACCUAGGUCAUCGUGUG [Fam2.2 aminoacylation ribozyme variant] ?
### Response 1.07

### Prompt I am curious: what self-aminoacylation value has been reported for CCACGCUUCAAGCAAUGGGUC [Fam1B.1 aminoacylation ribozyme variant] ?
### Response 0.627

Now consider a different sequence.
### Prompt Tell me the measured self-aminoacylation of CCACACAUCAAGCCAUCGGUC [Fam1B.1 aminoacylation ribozyme variant] , please.
### Response 1.01

###

test system: biotinyl-Ile-oxazolone; assay: self-aminoacylation, catalytic enhancement (BIO) (fold over background); higher = more active; k-Seq, kA / k0A0; sequences stand for … in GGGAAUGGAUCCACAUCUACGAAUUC…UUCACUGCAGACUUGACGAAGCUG
Variants at the floor of the assay were thinned out.
Kindly return Satisfied if reported self-aminoacylation is no lower than 3; return Not satisfied if it is lower.

### Prompt For this sequence, is measured self-aminoacylation 3 or higher? ACUACCCUGGUCAUCUAGUGA [Fam2.1 aminoacylation ribozyme variant]
### Response Satisfied

### Prompt Reported self-aminoacylation reaches at least 3 for CCGCACUUCAAGCAAUCAGUC [Fam1B.1 aminoacylation ribozyme variant] ?
### Response Not satisfied

### Prompt Form field: self-aminoacylation at least 3? Entry: AUUGACCUAGGUCUUCGGGUG [Fam2.2 aminoacylation ribozyme variant]
### Response Satisfied

### Prompt Please indicate if the recorded self-aminoacylation for AAGUUUGCUAAUAGCGGCAAG [Fam3.1 aminoacylation ribozyme variant] meets or exceeds 3.
### Response Not satisfied

### Prompt Identify whether the reported self-aminoacylation of the following sequence is 3 or greater: AUUACCCUGGUCAUAGGGUGA [Fam2.1 aminoacylation ribozyme variant]
### Response Satisfied

### Prompt Quick check: does AUUACACUGGUUAUCGAGUGA [Fam2.1 aminoacylation ribozyme variant] have self-aminoacylation greater than or equal to 3?
### Response Satisfied

### Prompt # check: self-aminoacylation of CUACUUCAAACCAACGGUCUG [Fam1A.1 aminoacylation ribozyme variant] is greater than or equal to 3
### Response Not satisfied

### Prompt Does self-aminoacylation meet or surpass 3 for CGACACUUCAAGCAAUCUGUC [Fam1B.1 aminoacylation ribozyme variant] ?
### Response Not satisfied

### Prompt Decide: self-aminoacylation of ACGUUUGCUAAUAGUCUCAAG [Fam3.1 aminoacylation ribozyme variant] >= 3?
### Response Not satisfied

### Prompt Kindly determine if self-aminoacylation recorded for CUGCUUCAAACAAUCAGUCUG [Fam1A.1 aminoacylation ribozyme variant] is above or exactly 3.
### Response Not satisfied

***
### Prompt Check the entry AUUACCCUGCUCAUUGAGUGA [Fam2.1 aminoacylation ribozyme variant] : does self-aminoacylation equal or exceed 3?
### Response Not satisfied

### Prompt Please indicate if the recorded self-aminoacylation for ACGUUUGCUAAUAGUCACAAG [Fam3.1 aminoacylation ribozyme variant] meets or exceeds 3.
### Response Not satisfied

### Prompt Record AUUCACCUAGGCCAUCGCGUG [Fam2.2 aminoacylation ribozyme variant] ; criterion: self-aminoacylation no lower than 3. Met?
### Response Satisfied

### Prompt // inclusive: self-aminoacylation at least 3? input: CUUACCCUGGUCAACGAGUGA [Fam2.1 aminoacylation ribozyme variant]
### Response Not satisfied

### Prompt Has AAGUUUGCUAAUAGGCUCAAG [Fam3.1 aminoacylation ribozyme variant] a recorded self-aminoacylation greater than or equal to 3?
### Response Not satisfied

### Prompt Could you please find out whether AUUCUCUUAGGUCAUCGGGUG [Fam2.2 aminoacylation ribozyme variant] has self-aminoacylation that meets 3 or exceeds it?
### Response Satisfied

### Prompt Threshold query (self-aminoacylation >= 3) on GUUACCCUGGUCAUGGAGUGA [Fam2.1 aminoacylation ribozyme variant]
### Response Satisfied

### Prompt hey, is self-aminoacylation for this one >= 3? AUUAACCUGGUCAUCGCGUGA [Fam2.1 aminoacylation ribozyme variant]
### Response Satisfied

### Prompt Hi, just wondering whether CUACAACAAACAAUCGGUCUG [Fam1A.1 aminoacylation ribozyme variant] shows self-aminoacylation of 3 or higher.
### Response Not satisfied

### Prompt Entry AUUACCCGGGUCAUCGAGAGA [Fam2.1 aminoacylation ribozyme variant] : is its self-aminoacylation no less than 3?
### Response Not satisfied

### Prompt Could you please find out whether AAGUUUGCUAAUCGUCGCACG [Fam3.1 aminoacylation ribozyme variant] has self-aminoacylation that meets 3 or exceeds it?
### Response Not satisfied
